# Target: T1, Soluble TSHR (22-260) protein (human, UniProt P16473 22-260)
# T1 construct: range 22-260
# Assay: SPR (Biacore T200, 25 C), antibody captured on anti-human Fc, soluble TSHR (22-260) as analyte, 1:1 fit;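 note: antibodies captured at 0.1 ug/mL on a CM5 sensor chip bearing anti-human Fc, with HBS-EP+ running buffer at pH 7.4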
Measured Property: pKd
Note on units: pKd is unitless, being -log10 of a concentration expressed in mol/L.

Prompt line: Which value of pKd has been reported for TSHB-14 (antibody, V domains shown) VH: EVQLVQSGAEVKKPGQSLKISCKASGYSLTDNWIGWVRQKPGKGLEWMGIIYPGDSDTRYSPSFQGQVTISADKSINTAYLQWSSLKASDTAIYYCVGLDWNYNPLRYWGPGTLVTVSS VL: QSVLTQPPSVSAAPGQKVTISCSGSSSDIGSNYVSWYQQLPGTAPKLLIYDNNKRPSGIPDRFSGSKSGTSATLGITGLQTGDEADYYCGTWDSRWGIAVFGGGTQLTVL in the records?
Response line: 8.60

Prompt line: Next binder: TSHB-15 (antibody, V domains shown) VH: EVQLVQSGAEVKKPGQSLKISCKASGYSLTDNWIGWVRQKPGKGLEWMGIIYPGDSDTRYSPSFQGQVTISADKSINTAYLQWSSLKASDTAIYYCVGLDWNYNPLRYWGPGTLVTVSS VL: QSVLTQPPSVSAAPGQKVTISCSGSSSDIGSNYVSWYQQLPGTAPKLLIYDNNKRPSGIPDRFSGSKSGTSATLGITGLQTGDEADYYCGTWDSRFGIAVFGGGTQLTVL
Response line: 8.51

Prompt line: Next binder: TSHB-20 (antibody, V domains shown) VH: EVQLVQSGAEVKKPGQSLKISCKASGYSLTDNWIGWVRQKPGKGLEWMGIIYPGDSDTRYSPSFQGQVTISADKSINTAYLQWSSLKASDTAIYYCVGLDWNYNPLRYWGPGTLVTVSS VL: QSVLTQPPSVSAAPGQKVTISCSGSSSNIGSNYVSWYQQLPGTAPKLLIYDNNKRPSGIPDRFSGSKSGTSATLGITGLQTGDEADYYCGTWDSRLGIAVFGGGTQLTVL
Response line: 8.56

Values compiled from patent US20250388688A1.
